Every entry's value here was drawn from PubChem BioAssay AID504467.

# protocol.text: qHTS screen for small molecules that inhibit ELG1-dependent DNA repair in human embryonic kidney (HEK293T) cells expressing luciferase-tagged ELG1; note: nearly all actives have a fitted effect of over 55% in size
# cond: HEK293T ELG1-luciferase reporter, luminescence, 16 h, DNA damage induced by 5-fluorouridine; series mostly up to 46.1 µM
Out of some 330,000 compounds screened, about 7,700 (2.3%) were called active. Not shown: some 26% with an inconclusive outcome. Calls come from the whole dose curve; as a rule, active = well fitted inhibition curve with a large enough effect; inconclusive = small, poorly fitted or top-dose-only effect, or effect the other way; inactive = flat fitted curve, though single readings scatter. Many of the other results were omitted from the sample, so actives are more common in it than they were.
Classes used: active, inactive

| molecule | group.label |
| --- | --- |
| COc1ccc(NC(=O)C(C)N2c3cccc4cccc(c34)S2(=O)=O)c(OC)c1 (centres undefined) | inactive |
| COc1ccc(N2CCN(C3CCCCC3NS(=O)(=O)c3ccccc3)CC2)cc1 (centres undefined) | inactive |
| CCOc1ccc(NC(=O)CSc2nc3c(c(=O)n2-c2ccccc2OC)SCC3)cc1 | inactive |
| Cc1ccc(C)c(S(=O)(=O)N2CCN(CC(=O)Nc3ccc([N+](=O)[O-])cc3)CC2)c1 | active |
| COc1ccc(OC)c(S(=O)(=O)Nc2c(C)nn(C)c2C)c1 | inactive |
| CCOC(=O)c1sc(NC(=O)CSc2nc3c(c(=O)n2-c2ccccc2)SCC3)c(C(=O)OCC)c1C | inactive |
| Cc1ccc(C)c(S(=O)(=O)N2CCN(C(=O)Nc3ccccc3)CC2)c1 | inactive |
| Cc1cccn2c(=O)c3cc(C(=O)NCC4CCCO4)c(=N)n(Cc4ccc(F)cc4)c3nc12 (centres undefined) | inactive |
| CCCn1c(C2CCCN2c2nc(-c3ccc(C)cc3)cs2)nc2cc(Cl)c(N3CCCCC3)cc21 (centres undefined) | inactive |

====

# protocol.text: qHTS screen for small molecules that inhibit ELG1-dependent DNA repair in human embryonic kidney (HEK293T) cells expressing luciferase-tagged ELG1; note: nearly all actives have a fitted effect of over 55% in size
# cond: HEK293T ELG1-luciferase reporter, luminescence, 16 h, DNA damage induced by 5-fluorouridine; series mostly up to 46.1 µM
The campaign covered roughly 330,000 compounds. About 7,700 (2.3%) were called active. Not shown: some 26% with an inconclusive outcome. Calls come from the whole dose curve; as a rule, active = well fitted inhibition curve with a large enough effect; inconclusive = small, poorly fitted or top-dose-only effect, or effect the other way; inactive = flat fitted curve, though single readings scatter. The sample holds actives, similar compounds and a random draw of the others, so the mix is not that of the screen.
Classes used: YES (active), NO (inactive)

| molecule | group.label |
| --- | --- |
| COc1ccc(CNC(=O)CN(C(=O)c2csnn2)c2cnc3ccccc3c2)cc1 | NO |
| COc1ccc(Cc2nnc(N/N=C/c3ccccc3O)[nH]c2=O)cc1OC | YES |
| CCC(C(=O)NC1CCCC1)N(C(=O)Cn1nnc(-c2ccc(C)o2)n1)c1ccc(OC)c(OC)c1 (configuration not stated) | NO |
| CCC1(CC)NC(=O)N(CC(=O)OCC(=O)c2cc(C)c(C)cc2C)C1=O | NO |
| CCOC(=O)c1ccc(Nc2cc(C)nc3nc(C)nn23)cc1 | NO |
| CCC(CO)Oc1cc(NC(=O)c2cccc3ccccc23)c2ncn(C(C)C)c2c1 (configuration not stated) | YES |
| CC1CCC(NC(=O)CN(C)S(=O)(=O)c2ccc3c(c2)c(=O)n(C)c(=O)n3C)CC1 (configuration not stated) | NO |
| O=C1c2cccnc2C(Nc2ccc(S(=O)(=O)N3CCCCCC3)cc2)N1Cc1ccccc1 (configuration not stated) | YES |
| O=c1[nH]c(NCCO)nnc1Cc1ccc(Cl)cc1 | NO |
| CCN(CC(=O)Nc1ccc2c(c1)OCO2)S(=O)(=O)c1ccccc1 | NO |
| CCC(=O)Nc1ccccc1N1CCN(S(C)(=O)=O)CC1 | NO |
| Cc1nc2cc(C(F)(F)F)ccc2n1CCNc1nc(-c2cc(Cl)c(N)c(Cl)c2)cs1 | NO |
| Cc1ccc(S(=O)(=O)N2[C@@H](c3ccccc3F)C(C(=O)O)=CC[C@H]2c2ccc(Cl)cc2)cc1 | NO |
| COc1ccccc1N1CC(C(=O)Nc2nnc(SCC(=O)NCC3CCCO3)s2)CC1=O (configuration not stated) | NO |
| COc1ccc(-c2[nH]nc3c2C(c2ccncc2)C(C#N)=C(N)O3)cc1 (configuration not stated) | NO |
| N#Cc1cc([N+](=O)[O-])ccc1NC(=O)COC(=O)c1cnccn1 | NO |
| CCOC(=O)c1nc(Nc2ccc(C(=O)OC)cc2)c2ccccc2n1 | YES |
| N#CC1=C(N)Oc2c(ccc3cccnc23)C1c1ccncc1 (configuration not stated) | YES |
| COc1cc(OC)cc(C(=O)NC2CCN(C(=O)N3c4ccccc4Sc4ccccc43)CC2)c1 | YES |
| CC(=O)c1cccc(OCC(=O)OCC(=O)Nc2cc(S(=O)(=O)N3CCCCC3)ccc2C)c1 | NO |
| COc1ccc2[nH]c3nc(SCC(=O)NC4CC4)nnc3c2c1 | NO |
| O=C(Nc1ccccc1N1CCOCC1)c1ccc(OCc2cscn2)cc1 | NO |
| CCCCC[C@@H]1C=C(C(=O)O)[C@H](c2ccc(C#N)cc2)N1S(=O)(=O)c1ccc(C)cc1 | NO |
| Cc1nc2ccccc2c(-c2ccccc2)c1C(=O)c1ccccc1 | NO |
| CCOC(=O)CSc1nc2ccc(C)cc2n2cnnc12 | NO |
| CCn1c(Cc2ccc(OC)cc2)nnc1SCC(=O)Nc1ccc(N2CCOCC2)cc1 | NO |
| O=S(=O)(c1ccc(F)cc1)N1CCN=C1SCc1cccc(F)c1 | NO |
| CN(C)C(CNC(=O)c1cccc(S(=O)(=O)Nc2ccc(Br)cc2)c1)c1ccco1 (configuration not stated) | NO |
| COc1ccc(C(=O)NC2CCN(C(=S)NCCc3ccccc3)CC2)cc1 | NO |
| O=C(COc1ccc(S(=O)(=O)N2CCCCC2)cc1)NCc1ccccn1 | NO |
| O=C(COc1ccc(F)cc1Br)NCC1COc2ccccc2O1 (configuration not stated) | NO |
| O=C(Nc1ccc(S(=O)(=O)N2CCCCC2)cc1)c1cnccn1 | NO |
| CCOC(=O)CSc1nc(N2CCOCC2)c2c(c1C#N)CC(C(C)C)OC2 (configuration not stated) | NO |
| Cc1nc2ccccc2c(C)c1C(=O)c1ccc(F)cc1 | YES |
| CCC(CO)Oc1cc(NC(=O)c2ccc(Cl)cc2)c2ncn(C(C)C)c2c1 (configuration not stated) | NO |
| COc1ccc(C(=O)O)cc1S(=O)(=O)NC1CCN(Cc2ccccc2)CC1 | NO |
| COCCN(CCOC)c1nc(N)c2c(N)nc3c(c2c1C#N)CC(=O)N3Cc1ccc(Cl)cc1 | YES |
| COc1ccc(CC(NC(C)=O)C(=O)NC2CCN(C(=O)c3ccc(OC)c(OC)c3)CC2)cc1OC (configuration not stated) | NO |
| CC(C)c1ccc(Cc2nnc(NCCCO)[nH]c2=O)cc1 | NO |
| O=C1[C@@H](c2ccccc2)[C@@H](c2ccccc2)N1c1cccnc1 | NO |
| CCCc1nc2c([nH]1)C(c1cccnc1)C(C#N)=C(N)O2 (configuration not stated) | NO |
| CC(Oc1ccc2c(-c3ccccc3)cc(=O)oc2c1)C(=O)NC(Cc1c[nH]c2ccccc12)C(=O)O (configuration not stated) | NO |
